// data source = paper PMC10572602

assay: CD spectroscopy, helicity; assay type: physicochemical; details: CD at 50 µM, 5 °C, 25 mM sodium phosphate pH 6.8, 154 mM NaCl
Value kind: MRE222 nm (kdeg cm^2 dmol^−1 res^−1)
Quick note: give the figure in kdeg cm^2 dmol^−1 res^−1, leave out the unit.

{"Substance": "L SPDAYRF LTEQDRQ LRLEQAQ IQRLLEA QSL-NH2 [STIL CCD718–749 L736E, STIL CCD peptide with destabilising L736E mutation; PDB 8oyk]", "MRE222 nm, kdeg cm^2 dmol^−1 res^−1": "−23.3"}
{"Substance": "L SPDLYRF LTEQDRQ LRLLQAQ IQRLLEA QSL-NH2 [STIL CCD718–749 A722L, STIL CCD peptide with A722L mutation]", "MRE222 nm, kdeg cm^2 dmol^−1 res^−1": "−24.9"}
{"Substance": "L SPDLYRF LTELDRQ LRLLQAQ IQRLLEA QSL-NH2 [STIL CCD718–749 A722L Q729L, STIL CCD peptide, double mutant of A722L and Q729L]", "MRE222 nm, kdeg cm^2 dmol^−1 res^−1": "−30.7"}

Shift focus to the following entry.
// lookup MRE222 nm for L SPDAYRF LTELDRQ LRLLQAQ IQRLLEA QSL-NH2 [STIL CCD718–749 Q729L, STIL CCD peptide with stabilising Q729L mutation; PDB 8oyl] −25.3

* * *

assay: CD spectroscopy, helicity; format: physicochemical; details: from MRE222 (100% = −38); CD at 50 µM, 5 °C, 25 mM sodium phosphate pH 6.8, 154 mM NaCl
Measured % Helicity by item
Reply numerically in %, unit not repeated.

{"Substance": "L SPDAYRF LTEQDRQ LRLEQAQ IQRLLEA QSL-NH2 [STIL CCD718–749 L736E, STIL CCD peptide with destabilising L736E mutation; PDB 8oyk]", "% Helicity (%)": 62}
{"Substance": "L SPDLYRF LTEQDRQ LRLLQAQ IQRLLEA QSL-NH2 [STIL CCD718–749 A722L, STIL CCD peptide with A722L mutation]", "% Helicity (%)": 66}
{"Substance": "L SPDLYRF LTELDRQ LRLLQAQ IQRLLEA QSL-NH2 [STIL CCD718–749 A722L Q729L, STIL CCD peptide, double mutant of A722L and Q729L]", "% Helicity (%)": 81}

// next item, % Helicity requested
Item under review: L SPDAYRF LTELDRQ LRLLQAQ IQRLLEA QSL-NH2 [STIL CCD718–749 Q729L, STIL CCD peptide with stabilising Q729L mutation; PDB 8oyl] . Reported % Helicity? 67

* * *

type: physicochemical; conditions: 50 µM; CD 222 nm, Boltzmann fit, 25 mM sodium phosphate pH 6.8, 154 mM NaCl
Value kind: Tm

Use these answered entries as a reference point.
{"Substance": "L SPDLYRF LTELDRQ LRLLQAQ IQRLLEA QSL-NH2 [STIL CCD718–749 A722L Q729L, STIL CCD peptide, double mutant of A722L and Q729L]", "Tm": ">95 °C"}
{"Substance": "L SPDAYRF LTELDRQ LRLLQAQ IQRLLEA QSL-NH2 [STIL CCD718–749 Q729L, STIL CCD peptide with stabilising Q729L mutation; PDB 8oyl]", "Tm": ">95 °C"}
{"Substance": "L SPDAYRF LTEQDRQ LRLEQAQ IQRLLEA QSL-NH2 [STIL CCD718–749 L736E, STIL CCD peptide with destabilising L736E mutation; PDB 8oyk]", "Tm": "10 ± 2 °C"}

Look at this substance and give its reported Tm. L SPDLYRF LTEQDRQ LRLLQAQ IQRLLEA QSL-NH2 [STIL CCD718–749 A722L, STIL CCD peptide with A722L mutation] >70 °C
